Would you kindly list interaction score for each of these binders?
Biological target: T1, 4H72-bN
T1 chain: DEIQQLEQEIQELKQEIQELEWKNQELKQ
Assay: two-hybrid library CCNG1;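 also: natural log of median RNA to DNA barcode read ratio; higher means stronger binding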
Numbers only.

binder	measurementLabel	obsValue
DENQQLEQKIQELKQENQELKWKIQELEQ [4H1373-bN]	interaction score	-2.48

Below is a list of binders. For each, state its recorded interaction score.
1. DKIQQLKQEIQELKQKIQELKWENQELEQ [4H2667-bN]
2. DEIQQLKQENQELEQKIQELKWKNQELEQ [4H687-bN]
3. DEIQQLEQEIQELKQEIQELEWKNQELKQ [4H72-bN]
4. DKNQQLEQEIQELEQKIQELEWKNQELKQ [4H3112-bN]
5. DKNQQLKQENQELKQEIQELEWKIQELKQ [4H3782-bN]
6. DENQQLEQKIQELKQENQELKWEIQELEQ [4H1369-bN]

*A*
[0.513, -1.56, 0.334, -0.5, -0.393, -1.26]
